Can you tell me activation at 300 µM for the items I'm about to list?
assayedSystem: GPR139 (Homo sapiens, UniProt Q6DWJ6)
Sequence (Q6DWJ6 1-353): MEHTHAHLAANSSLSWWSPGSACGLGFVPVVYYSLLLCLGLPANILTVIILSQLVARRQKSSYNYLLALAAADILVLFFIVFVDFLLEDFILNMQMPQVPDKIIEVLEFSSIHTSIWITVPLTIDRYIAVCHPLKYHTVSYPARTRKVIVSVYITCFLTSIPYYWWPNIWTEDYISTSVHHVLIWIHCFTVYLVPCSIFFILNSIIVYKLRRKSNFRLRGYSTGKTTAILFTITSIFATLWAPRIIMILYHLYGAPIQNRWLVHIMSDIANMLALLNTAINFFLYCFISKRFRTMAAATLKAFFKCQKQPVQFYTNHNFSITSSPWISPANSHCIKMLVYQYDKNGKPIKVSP
assayOverview: calcium mobilization assay (FLIPR), GPR139 transiently expressed in HEK293 cells
Assay type: cell-based
Design: expressed in transfected cells; host or cells: HEK293
runConditions: HEK293; calcium mobilization at 300 μM as percentage of that observed for L-phenylalanine; read-out: % L-phenylalanine at 300 μM (average)
Give bare numbers, in %.

Would you please look over these solved cases?
Cc1ccc(C[C@H](N)C(=O)O)c(C)c1	113
N[C@@H](Cc1ccccc1F)C(=O)O	119
N[C@H](Cc1cccc(F)c1)C(=O)O	94
N[C@H](C(=O)O)C(c1ccccc1)c1ccccc1	117
N[C@@H](Cc1ccc(Cl)cc1)C(=O)O	146

Please state, for each entry, its recorded activation at 300 µM.
1. N[C@@H](Cc1ccc(Cl)cc1Cl)C(=O)O
2. N[C@H](Cc1cccc(Cl)c1)C(=O)O
3. N[C@H](Cc1ccc([N+](=O)[O-])cc1)C(=O)O

Reply:
1. 122
2. 147
3. 111
